B1: NET1 (parent)
chain: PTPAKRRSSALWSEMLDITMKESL

- Variants of: B1
- assay-info: protein stability index of a GFP-peptide fusion (GPS, HEK-293T) (PSI 1-6); higher = more stable;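 note: lentivirally expressed fusions sorted by FACS into six bins by GFP to DsRed ratio, PSI derived from sequencing read proportions per bin multiplied by bin number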
- condition-info: c terminus: a fixed tail appended
Reported protein stability index values are given for each entry in this list.
endpoint-label: protein stability index

variant_description=R6F result=1.85
variant_description=A10H result=2.31
variant_description=R6S result=2.42
variant_description=D17T result=1.92
variant_description=W12K result=3.74
variant_description=S23N result=2.48
variant_description=T19H result=2.43
variant_description=L24V result=2.33
variant_description=S8W result=2.25
variant_description=P3C result=1.81
variant_description=W12G result=4.59
variant_description=M15N result=3.13
variant_description=A10E result=2.35
variant_description=R7K result=2.29
variant_description=K21Y result=2.03
variant_description=E14N result=2.11
variant_description=L16G result=2.33
variant_description=S23T result=1.89
variant_description=S13P result=2.71
variant_description=T19N result=3.39
variant_description=T19A result=1.74
variant_description=D17F result=2
variant_description=E22Q result=2.57
variant_description=S9I result=1.86
variant_description=P1D result=2.12
variant_description=R6E result=3.25
variant_description=A4P result=2.11
variant_description=K5H result=2.55
variant_description=A4D result=2.46
variant_description=T2N result=2.38
variant_description=P1V result=2.63
variant_description=M20E result=2.17
variant_description=A10P result=2
variant_description=K21D result=3.04
variant_description=R6H result=4.19
variant_description=T2R result=2.34
variant_description=P1T result=1.67
variant_description=L16F result=2.1
variant_description=K5G result=2.59
variant_description=T2E result=3.04
variant_description=T19L result=1.66
variant_description=I18T result=2.62
variant_description=P1L result=2.25
variant_description=T2Y result=1.86
variant_description=D17P result=2.83
variant_description=S13A result=1.42

These measurements were taken from the supplement of paper PMC10567573.
